- System: PLK2
- condition.label: concentration: 1 μM, replicates: in singlicate; n = 1
test.readout: %Inh (%)
Numbers only, in %.

Worked examples, 2 compounds total:
>>> recorded_number("CC(C)(C)c1ccc(C(=O)Nc2cn3cc(-c4cccnc4)ccc3n2)cc1")
16
>>> recorded_number("Cc1cc(-c2ccc3c(c2)CC[C@@H](N[C@@H](C)c2ccccc2)C3)cnc1N.Cl")
0

Consider the following items and state reported %Inh for each.
1. Cc1c(O)cccc1Nc1ccnc2ccc(C(F)(F)F)cc12.Cl
2. Cc1csc(-c2nc(Nc3ccncc3)c3ccccc3n2)n1
3. CN(C)CCN(C)C(=O)c1cc(-c2ccncc2)c(-c2ccc(Cl)c(O)c2)o1.Cl.Cl
4. O=C(Nc1n[nH]c2cc(-c3cccc(F)c3F)ccc12)C1CC1
5. Nc1nc(-c2nccs2)c(-c2ccnc3ccccc23)s1
6. Cc1cccc(-c2nc(Nc3ccc4[nH]ncc4c3)c3ccccc3n2)n1
7. Cc1cccc(-c2nc(Nc3cccc(C(N)=O)c3)c3ccccc3n2)n1

1. 0
2. 40
3. 0
4. 26
5. 0
6. 12
7. 0

###

- Test system: EPHA1
- condition.label: concentration: 1 μM, replicates: in singlicate; n = 1
Record form. Attribute: %Inh. Fill in for each entry.
Numbers only, in %.

Worked examples, 5 compounds total:
>>> recorded_number("Cc1cc(N2Cc3ccccc3C2)nc(Nc2ccc(S(=O)(=O)N3CCOCC3)cc2)n1.Cl [GSK1669917]")
0
>>> recorded_number("CS(=O)(=O)c1ccc(-c2c(-c3ncn[nH]3)sc(N3CCOCC3)c2C#N)cc1")
24
>>> recorded_number("Cn1ccc2ncnc(Oc3ccc(Nc4nc5ccccc5[nH]4)cc3)c21")
0
>>> recorded_number("Cc1cccc(-c2nc(C)cc(Nc3ccncc3)n2)n1 [GSK257997]")
0
>>> recorded_number("O=C(Nc1n[nH]c2nc(-c3nccs3)c(Br)cc12)C1CC1 [SB-742251]")
0

Consider the following items and state reported %Inh for each.
1. CS(=O)(=O)c1ccc(-c2nc3n(c2-c2ccncc2)CCC3)cc1 [SKF-105942]
2. Cc1cccc(-c2nc(-c3ccc(S(C)(=O)=O)cc3)sc2-c2ccnc(NCCc3ccccc3)c2)c1

1
0

Consider the following items and state reported %Inh for each.
1. Cc1nnc(-c2ccc3occ(-c4ccc(S(C)=O)cc4)c3c2)[nH]1 (stereo not drawn)
2. Cl.O=C(Nc1cccc(-c2nn3ncccc3c2-c2ccnc(Nc3cccnc3)n2)c1)c1c(F)cccc1F [GSK312879]

[0, 4]

###

- Test system: ULK3
pKd: −log10 of the molar value.
test.readout: pKd

I'm curious: which pKd was measured for COc1ccccc1-c1ccc2c(NC(=O)C3CC3)n[nH]c2n1 [SB-711239] tested on ULK3?
< 5.00

###

Record form. Attribute: %Inh. Fill in for each entry.
- System: DMPK2
- Construct: gene CDC42BPG
- condition.label: concentration: 1 μM, replicates: in singlicate; n = 1
Give bare numbers, in %.

Consider the following items and state reported %Inh for each.
1. Fc1cc(Cl)ccc1Nc1ccnc2cc(-c3ccc(CN4CCCCC4)o3)ccc12
2. Cc1c(Cn2ccn3c(=O)cc(N4CCOCC4)nc23)cccc1C(F)(F)F
3. Nc1ncnc2[nH]c(-c3ccccc3)nc12
4. CS(=O)(=O)c1ccc(-c2c(-c3ncn[nH]3)sc(N3CCOCC3)c2C#N)cc1
5. Cc1nnc(-c2ccc3occ(-c4ccc(S(C)=O)cc4)c3c2)[nH]1 (stereo not drawn)
6. Cc1cccc(-c2nc(Nc3ccncc3)c3ccccc3n2)n1

[0, 0, 0, 15, 6, 76]

###

- Tested on: MEK4
- Construct: gene MAP2K4
- condition.label: concentration: 1 μM, replicates: in singlicate; n = 1
Note to self: values exactly at 30% are rule met. So %Inh at or above 30% is rule met, below is rule not met.

Below are worked cases with known answers.
>>> answer_label("Cc1csc(-c2nc(Nc3ccncc3)c3ccccc3n2)n1 [GW869640]")
"rule not met"
>>> answer_label("Cc1cccc(-c2nc(Nc3ccc4[nH]ncc4c3)c3ccccc3n2)n1 [GW857175]")
"rule met"
>>> answer_label("Fc1cc(Cl)ccc1Nc1ccnc2cc(I)ccc12 [GW551191]")
"rule met"
>>> answer_label("CCn1c(-c2cccnc2O)nc2cnccc21 [SB-736715]")
"rule not met"
>>> answer_label("COc1cc2nccc(Nc3ccc(NC(=O)c4ccc(C)cc4)c(O)c3)c2cc1OC.Cl [GW440132]")
"rule not met"

Check this compound for %Inh at or above 30%: O=C(O)COc1ncnc2cc(-c3ccc4[nH]ncc4c3)sc12
rule met

###

Kd data for LIMK1 follow.

Consider the following items and state reported Kd for each.
1. COc1ccc(C2=C(Nc3cccc(C(=O)O)c3)C(=O)NC2=O)cc1
2. Cn1ccc2ncnc(Oc3cccc(C(=O)Nc4ccccc4)c3)c21

["> 10 µM", "> 10 µM"]

###

- Tested on: MARK3
- condition.label: concentration: 1 μM, replicates: in singlicate; n = 1
test.readout: %Inh (%)
Give bare numbers, in %.

>>> recorded_number("CN(C)CCN(C)C(=O)c1cc(-c2ccncc2)c(-c2ccc(Cl)c(O)c2)o1.Cl.Cl")
0

Consider the following items and state reported %Inh for each.
1. COc1ccc(Nc2nccc(NCCNC(=O)Nc3ccccc3F)n2)cc1
2. Cc1cccc(-c2nc(Nc3ccncc3)c3ccccc3n2)n1
3. Cc1cc(N2Cc3ccccc3C2)nc(Nc2ccc(S(=O)(=O)N3CCOCC3)cc2)n1.Cl
4. NC(=O)c1nnc2ccccc2c1N

1: 0; 2: 32; 3: 12; 4: 0

Consider the following items and state reported %Inh for each.
1. Fc1cc(Cl)ccc1Nc1ccnc2cc(-c3ccc(CN4CCCCC4)o3)ccc12
2. Cc1ccccc1-n1cnc2c(N)ncnc21

1. 0
2. 0

Consider the following items and state reported %Inh for each.
1. COc1cc(Nc2nccc(N3CCC(NC(=O)Nc4cc(C)ccc4C)C3)n2)cc(OC)c1OC (stereo not shown)
2. CS(=O)(=O)c1ccc(-c2nc3n(c2-c2ccncc2)CCC3)cc1
3. COc1ccc(C2=C(Nc3cccc(C(=O)O)c3)C(=O)NC2=O)cc1
4. Cn1ccc2ncnc(Oc3ccc(Nc4nc5ccccc5[nH]4)cc3)c21
5. O=C1NC(=O)C(N2CCc3ccccc32)=C1c1ccccc1Cl
6. Cl.c1ccc(-c2n[nH]cc2-c2ccnc(-c3ccc(CN4CCOCC4)cc3)c2)nc1
7. Cc1cccc(-c2nc(Nc3ccc4[nH]ncc4c3)c3ccccc3n2)n1

8
0
0
0
0
1
0

Consider the following items and state reported %Inh for each.
1. Cc1cccc(-c2cc(Nc3ccncc3)c3ccccc3n2)n1
2. CC(C)(C)c1ccc(C(=O)Nc2cn3cc(-c4cccnc4)ccc3n2)cc1
3. O=C(Nc1ccc2c(c1)OCO2)NC1CCN(c2ccnc(Nc3ccc(F)cc3)n2)C1 (stereo not shown)
4. CS(=O)(=O)c1ccc(-c2c(-c3ncn[nH]3)sc(N3CCOCC3)c2C#N)cc1
5. COc1ccc(CNC(=O)NC2CCN(c3ccnc(Nc4cc(OC)c(OC)c(OC)c4)n3)C2)cc1 (stereo not shown)

1: 0; 2: 0; 3: 0; 4: 0; 5: 0

###

- Test system: HASPIN
- Construct: gene GSG2
- condition.label: concentration: 1 μM, replicates: in singlicate; n = 1
Record form. Attribute: %Inh. Fill in for each entry.
Give bare numbers, in %.

Worked examples, 2 molecules total:
>>> recorded_number("COc1cc(Nc2nccc(N3CCC(NC(=O)Nc4cc(C)ccc4C)C3)n2)cc(OC)c1OC (stereo not shown)")
0
>>> recorded_number("CN1C(=O)C(Nc2ccc(Cl)c(C(=O)O)c2)=C(c2ccc(Cl)cc2)C1=O")
21

Consider the following items and state reported %Inh for each.
1. CC(C)(C)c1ccc(C(=O)Nc2cn3cc(Cl)ccc3n2)cc1
2. Cc1cccc(-c2nc(-c3ccc(S(C)(=O)=O)cc3)sc2-c2ccnc(NCCc3ccccc3)c2)c1

1: 0; 2: 42

Consider the following items and state reported %Inh for each.
1. O=C(Nc1n[nH]c2nc(-c3nccs3)c(Br)cc12)C1CC1
2. Cn1ccc2ncnc(Oc3ccc(Nc4nc5ccccc5[nH]4)cc3)c21
3. COc1cc2ncn(-c3cc(OCC4CCCO4)c(C(N)=O)s3)c2cc1OC (stereo not shown)

1: 11; 2: 50; 3: 26

###

- Test system: GRK4
- condition.label: concentration: 1 μM, replicates: in singlicate; n = 1
Record form. Attribute: %Inh. Fill in for each entry.

>>> result("CN(C)CCN(C)C(=O)c1cc(-c2ccncc2)c(-c2ccc(Cl)c(O)c2)o1.Cl.Cl")
"0%"
>>> result("CS(=O)(=O)c1ccc(-c2c(-c3ncn[nH]3)sc(N3CCOCC3)c2C#N)cc1")
"0%"
>>> result("O=C(Nc1n[nH]c2cc(-c3cccc(F)c3F)ccc12)C1CC1")
"0%"
>>> result("Cc1ccc(NC(=O)Nc2cccc(Cl)c2)cc1-c1ccc(C(=O)Nc2ccncc2)cc1")
"0%"
>>> result("Cl.Oc1ccc(-c2nc(-c3ccccc3)[nH]c2-c2ccncc2)cc1")
"0%"
>>> result("CC1=C(C(=O)Nc2cc3cn[nH]c3cc2F)C(c2ccc(C(F)(F)F)cc2)CC(=O)N1 (stereo not drawn)")
"10%"

Consider the following items and state reported %Inh for each.
1. COc1cccc(NC(=O)NC2CCN(c3ccnc(Nc4ccc(F)cc4)n3)C2)c1 (stereo not drawn)
2. COc1ccc(C2=C(Nc3cccc(C(=O)O)c3)C(=O)NC2=O)cc1

["0%", "14%"]

Recorded %Inh for COc1ccccc1CNC(=O)c1cc(C(=O)c2ccccc2C)c[nH]1 , please?
0%
